Target: KRas G12C (Homo sapiens, UniProt P01116, G12C)
Sequence (P01116 1-188 isoform P01116-2 G12C): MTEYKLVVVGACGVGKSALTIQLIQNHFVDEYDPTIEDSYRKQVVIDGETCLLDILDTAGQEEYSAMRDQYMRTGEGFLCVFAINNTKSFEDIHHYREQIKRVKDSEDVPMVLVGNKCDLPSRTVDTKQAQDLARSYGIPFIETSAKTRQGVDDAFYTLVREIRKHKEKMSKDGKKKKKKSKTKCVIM
Assay: Cellular inhibition of KRas G12C measured by Phospho-ERK in NCI-H358 cells
Format: cell-based
Details: pERK(Thr202/Tyr204) normalized with GAPDH, NCI-H358 cells, 3 hours; read-out: IC50
pIC50: −log10 of the molar value.
Reported metric: pIC50

// solved cases for pIC50 follow
C/C=C/C(=O)N1CCN(c2nc(OC[C@@H]3CCCN3C)nc3c2CCN(c2cc(O)cc4ccccc24)C3)CC1; < 6.00
Cc1cccc2cccc(N3CCc4c(nc(OC[C@@H]5CCCN5C)nc4N4CCN(C(=O)/C=C/C(F)F)[C@@H](CC#N)C4)C3)c12; 6.00 to 10.00
C=C(F)C(=O)N1CCN(c2ncnc3c2CCN(c2cccc4ccccc24)C3)C[C@@H]1CC#N; < 6.00
C=CC(=O)N1CCN(c2nc(OCC3CN(C)CCN3C)nc3c2CCN(c2cc(O)cc4ccccc24)C3)CC1 (stereo not shown); < 6.00
C=CC(=O)N1CCN(c2nc(O[C@H](C)CN(C)C)nc3c2CCN(c2cc(O)cc4ccccc24)C3)CC1; 6.00 to 10.00
CC(C)=CC(=O)N1CCN(c2nc(OC[C@@H]3CCCN3C)nc3c2CCN(c2cccc4ccccc24)C3)CC1CC#N (stereo partly shown); < 6.00

Under KRas G12C (Homo sapiens, UniProt P01116, G12C): pIC50 value of `C=CC(=O)N1CCN(c2nc(OCCN3CCC[C@H](F)C3)nc3c2CCN(c2cc(O)cc4ccccc24)C3)CC1` ?
6.00 to 10.00
